- System: JHH-7
- method: TH2870 sensitivity in liver cancer cells
- Format: cell-based, human
- settings: Homo sapiens, JHH7, AKR1C3 expression +++, read-out: RelIC50
outcome_measure: IC50 (nM)
Output spec: scalar in nM, unitless text.

Return reported IC50; argument: CC(OP(=O)(N1CC1)N1CC1)c1ccc([N+](=O)[O-])c(Oc2cccc(C(=O)N(C)C)c2)c1 (stereo not shown) 107

###

- method: in vivo
- settings: Nu-Foxn1nu NU/NU, mouse, ip, 20 mg/kg
outcome_measure: Kp

Recorded Kp for CC(OP(=O)(N1CC1)N1CC1)c1ccc([N+](=O)[O-])c(Oc2cccc(C(=O)N(C)C)c2)c1 (stereo not shown) , please? 0.0079 to 0.326

###

- method: Pharmacokinetics of TH2870 in CD-1 mice, single IV bolus and single IP dose
- settings: mouse, in vivo, IP 10 mg/kg
outcome_measure: AUC (ng·h/mL)
Number only, in ng·h/mL; omit the unit.

Please look up its AUC: CC(OP(=O)(N1CC1)N1CC1)c1ccc([N+](=O)[O-])c(Oc2cccc(C(=O)N(C)C)c2)c1 (stereo not shown) 725

###

- method: Pharmacokinetics of TH2953 in NU/NU mice with A549 and H460 xenografts
- Type: in vivo, Mouse/Nu-Foxn 1nu NU/NU mice
- settings: Nu-Foxn1nu NU/NU, mouse, plasma, ip, 40 mg/kg, TH2953 40 mg/kg single ip; A549 xenograft
outcome_measure: AUC (ng·h/mL)
# unit: ng·h/mL | format: bare number

Looking for the measured AUC of CC(OP(=O)(N1CC1)N1CC1)c1ccc([N+](=O)[O-])c(Oc2ccc(-c3ccccc3)cc2)c1 (stereo not shown) [Compound 2953] , can you help? 39000

###

- method: Pharmacokinetics of TH2953 in NU/NU mice with A549 and H460 xenografts
- Type: in vivo, Mouse/Nu-Foxn 1nu NU/NU mice
- settings: Nu-Foxn1nu NU/NU, mouse, plasma, ip, 40 mg/kg, TH2953 40 mg/kg single ip; A549 xenograft
outcome_measure: Cmax

I'd like to know its Cmax. The compound in question is CC(OP(=O)(N1CC1)N1CC1)c1ccc([N+](=O)[O-])c(Oc2ccc(-c3ccccc3)cc2)c1 (stereo not shown) 14800 ng/mL

###

- Test system: LIXC-002
- method: TH2870 sensitivity in liver cancer cells
- Format: cell-based, human
- settings: Homo sapiens, AKR1C3 expression +++, read-out: RelIC50
outcome_measure: IC50 (nM)
Just the number please, in nM, no unit attached.

Recorded IC50 for CC(OP(=O)(N1CC1)N1CC1)c1ccc([N+](=O)[O-])c(Oc2cccc(C(=O)N(C)C)c2)c1 (stereo not shown) , please? 56

###

- method: Pharmacokinetics of TH2953 in NU/NU mice with A549 and H460 xenografts
- Assay type: in vivo, Mouse/Nu-Foxn 1nu NU/NU mice
- settings: Nu-Foxn1nu NU/NU, mouse, plasma, ip, 40 mg/kg, TH2953 40 mg/kg single ip; A549 xenograft
outcome_measure: half-life
Enter the number, and then the unit.

Param item = CC(OP(=O)(N1CC1)N1CC1)c1ccc([N+](=O)[O-])c(Oc2ccc(-c3ccccc3)cc2)c1 (stereo not shown) ; retrieve measured half-life. 1.52 h

###

- method: Pharmacokinetics of TH2953 in NU/NU mice with A549 and H460 xenografts
- Assay type: in vivo, Mouse/Nu-Foxn 1nu NU/NU mice
- settings: Nu-Foxn1nu NU/NU, mouse, plasma, ip, 10 mg/kg, TH2953 10 mg/kg single ip; A549 xenograft
outcome_measure: AUC
Please answer using the number first and the unit second.

Requested read-out: AUC. Entry: CC(OP(=O)(N1CC1)N1CC1)c1ccc([N+](=O)[O-])c(Oc2ccc(-c3ccccc3)cc2)c1 (stereo not shown) 4430 ng·h/mL

Values from patent US10766914B2
